Assay explanation: Stability experiments under 25° C.±2° C. and 65% R.H±5% R.H
Assay setup: month 12; 25° C./65% R.H
Text: • 1. […] The results are shown in detail in the following table.
Below, each of the molecules is paired with its reported Related substance value.
Answer shape: numeric part, then the unit.

So what does the record say about Related substance for CCC(C(C)OP(=O)([O-])[O-])n1ncn(-c2ccc(N3CCN(c4ccc(OCC5COC(Cn6cncn6)(c6ccc(F)cc6F)C5)cc4)CC3)cc2)c1=O.C[N+](C)(C)CCO.C[N+](C)(C)CCO.O.O.O.O.O (stereo not shown) [Comparative Example 2] ?
0.29%

* * *

Assay explanation: Stability experiments under 25° C.±2° C. and 65% R.H±5% R.H
Assay setup: month 24; 25° C./65% R.H
Values of Related substance strictly less than 1% map to TRUE, and values of at least 1% map to FALSE.

The examples below pair each entry with its known result.
Molecule | Category
CC[C@@H]([C@H](C)OP(=O)(O)O)n1ncn(-c2ccc(N3CCN(c4ccc(OC[C@@H]5CO[C@@](Cn6cncn6)(c6ccc(F)cc6F)C5)cc4)CC3)cc2)c1=O [Example 3] | TRUE
CC[C@@H]([C@H](C)OP(=O)(O)O)n1ncn(-c2ccc(N3CCN(c4ccc(OC[C@@H]5CO[C@@](Cn6cncn6)(c6ccc(F)cc6F)C5)cc4)CC3)cc2)c1=O [Example 1, Posaconazole Phosphate Monocholinate] | TRUE
CCC(C(C)OP(=O)([O-])[O-])n1ncn(-c2ccc(N3CCN(c4ccc(OCC5COC(Cn6cncn6)(c6ccc(F)cc6F)C5)cc4)CC3)cc2)c1=O.C[N+](C)(C)CCO.C[N+](C)(C)CCO.O.O.O.O.O (stereo not shown) | TRUE
CC[C@@H]([C@H](C)OP(=O)(O)O)n1ncn(-c2ccc(N3CCN(c4ccc(OC[C@@H]5CO[C@@](Cn6cncn6)(c6ccc(F)cc6F)C5)cc4)CC3)cc2)c1=O.N=C(N)NCCC[C@H](N)C(=O)O [Comparative Example 5, Posaconazole Phosphate Monoarginine Salt] | TRUE
CC[C@@H]([C@H](C)OP(=O)([O-])[O-])n1ncn(-c2ccc(N3CCN(c4ccc(OC[C@@H]5CO[C@@](Cn6cncn6)(c6ccc(F)cc6F)C5)cc4)CC3)cc2)c1=O.C[N+](C)(C)CCO.C[N+](C)(C)CCO [Comparative Example 1, Posaconazole Phosphate Bicholinate] | TRUE

Okay, next one:
Related substance strictly < 1% for this molecule? "CC[C@@H]([C@H](C)OP(=O)([O-])[O-])n1ncn(-c2ccc(N3CCN(c4ccc(OC[C@@H]5CO[C@@](Cn6cncn6)(c6ccc(F)cc6F)C5)cc4)CC3)cc2)c1=O.O.O.O.O.O.[Na+].[Na+]"
FALSE
